target: Ephrin type-A receptor 5 (Homo sapiens); details: at 10 µM
Result Type: residual activity

Asked: Returns the measured residual activity for the input compound. Input: COc1cc(OC)c(/C=C2\C(=O)Nc3ccccc32)c(OC)c1
Given back: 101%

Asked: Returns the measured residual activity for the input compound. Input: CCc1nc(-c2ccc(OC)cc2)[nH]c1-c1ccncc1
Given back: 104%

Asked: Returns the measured residual activity for the input compound. Input: C[S+]([O-])c1ccc(-c2nc(-c3ccc(F)cc3)c(-c3ccncc3)[nH]2)cc1 (stereo not given)
Given back: 48%

Asked: Returns the measured residual activity for the input compound. Input: COC(=O)[C@@]1(O)C[C@H]2O[C@]1(C)n1c3ccccc3c3c4c(c5c6ccccc6n2c5c31)C(=O)NC4
Given back: 13%

Asked: Returns the measured residual activity for the input compound. Input: CC(C)(C)c1cc(C=C(C#N)C#N)cc(Br)c1O
Given back: 97%
